Please respond with reported PBM E-score for every item in the list.
# experimental_target: Vhr1 (UniProt P40522)
# Sequence: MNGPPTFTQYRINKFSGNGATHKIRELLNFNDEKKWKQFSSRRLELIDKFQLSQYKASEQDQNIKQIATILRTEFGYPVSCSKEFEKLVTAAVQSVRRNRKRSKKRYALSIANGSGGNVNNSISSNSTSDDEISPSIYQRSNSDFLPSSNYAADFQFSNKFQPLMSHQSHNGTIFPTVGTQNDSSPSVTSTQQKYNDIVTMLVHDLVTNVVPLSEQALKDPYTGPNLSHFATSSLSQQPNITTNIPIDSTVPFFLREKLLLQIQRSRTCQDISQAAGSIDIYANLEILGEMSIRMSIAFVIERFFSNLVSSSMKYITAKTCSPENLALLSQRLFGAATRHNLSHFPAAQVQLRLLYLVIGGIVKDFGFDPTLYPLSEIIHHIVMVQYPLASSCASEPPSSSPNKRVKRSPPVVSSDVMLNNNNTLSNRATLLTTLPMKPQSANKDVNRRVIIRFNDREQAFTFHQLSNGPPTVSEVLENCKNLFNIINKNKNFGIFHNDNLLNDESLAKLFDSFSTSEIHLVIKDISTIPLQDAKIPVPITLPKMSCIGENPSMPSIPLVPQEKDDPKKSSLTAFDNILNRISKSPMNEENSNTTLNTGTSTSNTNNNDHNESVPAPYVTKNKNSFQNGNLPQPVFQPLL
# experimental_protocol: PBM E-score (8-mer binding enrichment) (E-score (-0.5 to 0.5)); higher = stronger / more preferred TF binding
# study_conditions: protein concentration: 200 nM; construct: GST-full length
Whole data set: some 33,000 sequences, median “E-score (-0.5 to 0.5)” near -0.012, cut for the highest 2% near 0.27. The sample holds the highest values, similar sequences and a random draw of the others, so the mix is not that of the screen.
One number for each entry.

TCCCGGGA: -0.0779
AATGTTGA: 0.043
AGTCGCTA: 0.174
AGACTCCG: 0.225
CATAACGA: 0.0162

Would you mind giving PBM E-score for every sequence in the list below?
1. GATATACA
2. AATTCGCG
3. GGTCGCGA

Given back:
1. 0.113
2. -0.02
3. 0.194

// each sequence listed below needs its PBM E-score
1. CGACTCCA
2. GGGAGTCA
3. AGGAATCC
4. AGACATGG
5. CATACATA

Given back:
1: 0.4; 2: 0.47; 3: 0.119; 4: 0.192; 5: 0.238

Please give PBM E-score for each item listed below.
1. GATATATA
2. TGTACACA
3. AATATATA
4. ATCACACA
5. ACAATCGT
6. ACTACACG
7. CTGAACCA

Given back:
0.284
0.0228
0.157
0.282
0.0768
0.221
0.245

###

# experimental_target: Vhr1 (UniProt P40522)
# Sequence: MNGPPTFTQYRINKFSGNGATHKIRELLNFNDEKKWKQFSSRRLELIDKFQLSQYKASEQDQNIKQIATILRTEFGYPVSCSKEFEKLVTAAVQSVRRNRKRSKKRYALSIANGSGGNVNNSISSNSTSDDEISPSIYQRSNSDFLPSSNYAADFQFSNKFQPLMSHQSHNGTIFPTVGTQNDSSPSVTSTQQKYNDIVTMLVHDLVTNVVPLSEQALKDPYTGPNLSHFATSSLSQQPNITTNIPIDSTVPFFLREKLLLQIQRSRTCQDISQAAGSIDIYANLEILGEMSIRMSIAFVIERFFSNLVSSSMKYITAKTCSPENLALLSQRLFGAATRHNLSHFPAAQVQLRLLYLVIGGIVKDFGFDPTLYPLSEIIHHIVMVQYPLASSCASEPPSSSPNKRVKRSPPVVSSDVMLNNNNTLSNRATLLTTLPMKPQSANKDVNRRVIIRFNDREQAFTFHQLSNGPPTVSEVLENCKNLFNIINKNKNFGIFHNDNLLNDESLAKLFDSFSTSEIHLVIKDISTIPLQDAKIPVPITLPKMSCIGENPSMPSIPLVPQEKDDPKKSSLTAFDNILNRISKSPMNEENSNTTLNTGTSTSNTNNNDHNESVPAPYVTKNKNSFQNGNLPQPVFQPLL
# experimental_protocol: PBM E-score (8-mer binding enrichment) (E-score (-0.5 to 0.5)); higher = stronger / more preferred TF binding
# study_conditions: protein concentration: 200 nM; construct: GST-full length
Over roughly 33,000 sequences, “E-score (-0.5 to 0.5)” has its median near -0.012; the highest 2% begin near 0.27. For the sample, the highest values were picked, then their nearest neighbours and some sequences at random.
Task for the reader: assign each of the following sequences its reported PBM E-score.
Answers are plain numbers.

ACTCAGTG: 0.245
GACTCCGC: 0.38
GATGATTA: 0.337
CCCAGCAG: 0.0474
CCGCAGTA: 0.0424

Provide each entry's PBM E-score from the list below.
1. ACGCAGTC
2. AAAGGCGC
3. CAGTCAAG
4. ACAGGGTC
5. AATACCTC
6. CCTCAGTA
7. GATGATCC

Given back:
0.169
-0.0831
0.0145
0.133
0.0406
-0.106
0.0747

Fill in PBM E-score for each of the 2 sequences listed.
1. CGGTCATA
2. GACTCCGA

Given back:
1: -0.0676; 2: 0.428

###

# experimental_target: Vhr1 (UniProt P40522)
# Sequence: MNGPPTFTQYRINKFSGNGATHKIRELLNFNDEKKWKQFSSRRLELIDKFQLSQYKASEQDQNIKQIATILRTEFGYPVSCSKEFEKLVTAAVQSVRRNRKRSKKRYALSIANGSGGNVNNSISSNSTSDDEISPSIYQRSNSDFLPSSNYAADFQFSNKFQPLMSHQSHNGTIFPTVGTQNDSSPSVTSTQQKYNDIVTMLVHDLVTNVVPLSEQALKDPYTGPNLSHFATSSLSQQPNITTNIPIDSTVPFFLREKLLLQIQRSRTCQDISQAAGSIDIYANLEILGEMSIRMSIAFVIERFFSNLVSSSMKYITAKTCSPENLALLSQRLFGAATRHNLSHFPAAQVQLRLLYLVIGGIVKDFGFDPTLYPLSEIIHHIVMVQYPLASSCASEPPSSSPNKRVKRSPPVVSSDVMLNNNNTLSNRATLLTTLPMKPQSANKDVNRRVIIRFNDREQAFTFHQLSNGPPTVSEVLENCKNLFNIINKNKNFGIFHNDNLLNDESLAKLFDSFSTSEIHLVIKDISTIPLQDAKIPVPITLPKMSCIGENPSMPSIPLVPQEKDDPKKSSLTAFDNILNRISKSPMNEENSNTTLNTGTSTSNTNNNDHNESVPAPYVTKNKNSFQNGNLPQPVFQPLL
# experimental_protocol: PBM E-score (8-mer binding enrichment) (E-score (-0.5 to 0.5)); higher = stronger / more preferred TF binding
# study_conditions: protein concentration: 200 nM; construct: GST-full length
In all, about 33,000 sequences were measured (“E-score (-0.5 to 0.5)”: median about -0.012, highest 2% from about 0.27 on). What follows is part of a selection rich in the highest values, with near analogues and random picks from the rest.
// map PBM E-score to label using low class: < -0.06; middle class: ≥ -0.06 and < 0.08; high class: ≥ 0.08

Observe how each entry below is paired with its result.
AGTGACAA: middle class
AGTGACGA: high class
AACCTGAG: middle class
TACTGCAA: middle class
ACTTGCTC: middle class

For the next question, use this sequence.
Asked: For AGCCAGTA , which PBM E-score bin applies?
Given back: high class

###

# experimental_target: Vhr1 (UniProt P40522)
# Sequence: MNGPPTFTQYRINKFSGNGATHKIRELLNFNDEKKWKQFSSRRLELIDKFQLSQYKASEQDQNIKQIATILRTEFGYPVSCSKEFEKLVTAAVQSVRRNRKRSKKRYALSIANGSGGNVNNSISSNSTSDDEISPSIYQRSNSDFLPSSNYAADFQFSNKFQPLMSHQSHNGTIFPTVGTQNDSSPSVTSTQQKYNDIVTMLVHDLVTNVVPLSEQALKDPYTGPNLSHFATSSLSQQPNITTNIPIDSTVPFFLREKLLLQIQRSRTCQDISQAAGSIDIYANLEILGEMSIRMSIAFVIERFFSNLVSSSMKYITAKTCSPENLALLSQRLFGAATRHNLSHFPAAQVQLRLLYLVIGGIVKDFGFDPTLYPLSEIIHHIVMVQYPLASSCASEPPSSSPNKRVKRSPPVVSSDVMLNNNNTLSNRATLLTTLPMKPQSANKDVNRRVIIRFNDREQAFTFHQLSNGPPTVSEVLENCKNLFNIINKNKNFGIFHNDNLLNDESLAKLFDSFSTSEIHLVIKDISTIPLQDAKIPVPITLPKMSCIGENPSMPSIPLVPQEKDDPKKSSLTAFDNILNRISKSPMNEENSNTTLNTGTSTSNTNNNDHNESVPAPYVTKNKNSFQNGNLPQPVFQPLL
# experimental_protocol: PBM E-score (8-mer binding enrichment) (E-score (-0.5 to 0.5)); higher = stronger / more preferred TF binding
# study_conditions: protein concentration: 200 nM; construct: GST-full length
Whole data set: some 33,000 sequences, median “E-score (-0.5 to 0.5)” near -0.012, cut for the highest 2% near 0.27. Only a selection was taken, and the highest values are over-represented in it overall.
Exercise: for every item that follows, state its recorded PBM E-score.

ACGACAAA: 0.092

# return PBM E-score for each item in the list
1. GCTAAACA
2. AATTTAGG

Given back:
1. -0.0852
2. 0.0535

Please give PBM E-score, item by item, for the list that follows.
1. CAGGACAC
2. CTTATACC
3. GCCCACAC
4. AAGTCACT
5. CAATCAGC
6. AAGTCACG
7. AGCGAGTG
8. CATGGCTA

Given back:
1: 0.135; 2: -0.0429; 3: 0.069; 4: 0.209; 5: 0.193; 6: 0.336; 7: 0.192; 8: 0.224
